TEST: in vitro
EXPERIMENTAL PARAMETERS: human, microsomes
Description: Metabolic stability in human microsomes assessed as half life
OBSERVATION TYPE: half-life (min)

MOLECULE	MEASURED NUMBER
O=S(=O)(N[C@H](CO)C(CC(F)(F)F)CC(F)(F)F)c1ccc(Cl)s1	8
CCC(CC)[C@@H](CO)NS(=O)(=O)c1ccc(Cl)s1 [GSI-136]	8

* * *

TEST: Metabolic stability in Tg2576 mouse microsomes assessed as half life
Format: ADME, Microsome
OBSERVATION TYPE: half-life (min)

A. O=S(=O)(N[C@H](CO)C(C(F)(F)F)C(F)(F)F)c1ccc(Cl)s1
B. CCC(CC)[C@@H](CO)NS(=O)(=O)c1ccc(Cl)s1
C. O=S(=O)(N[C@H](CO)C(CC(F)(F)F)CC(F)(F)F)c1ccc(Cl)s1
Ask | Sort the items above by half-life, starting with the smallest value. Respond with the label ranking, as requested.
Reply | B, C, A

* * *

TEST: Selectivity ratio of EC50 for gamma-secretase to EC50 for mouse notch processing
OBSERVATION TYPE: Ratio EC50

Before answering, review these 3 worked examples.
MOLECULE	Ratio EC50
O=S(=O)(N[C@@H](CO)C(C(F)(F)F)C(F)(F)F)c1ccc(Cl)s1	3.7
CCC(CC)[C@@H](CO)NS(=O)(=O)c1ccc(Cl)cc1	14
O=S(=O)(N[C@H](CO)C(C(F)(F)F)C(F)(F)F)c1ccc(Cl)s1 [BEGACESTAT]	14

A. O=S(=O)(N[C@H](CO)C(CC(F)(F)F)CC(F)(F)F)c1ccc(Cl)s1
B. CCC(CC)[C@@H](CO)NS(=O)(=O)c1ccc(Cl)s1 [GSI-136]
Ask | Hi team, can someone confirm which has the larger Ratio EC50: A or B ? Thanks. Refer to your chosen item by its label in the answer.
Reply | A

* * *

TEST: Ratio of drug level in brain to plasma in Tg2576 mouse model
Format: ADME
OBSERVATION TYPE: Kp
Reply with the value as a number alone.

Ask | Need Kp, item "CCC(CC)[C@@H](CO)NS(=O)(=O)c1ccc(Cl)s1"
Reply | 2

* * *

TEST: Inhibition of gamma-secretase expressed in CHO cells expressing human recombinant APP assessed as amyloid beta40 […]
Type: cell-based
OBSERVATION TYPE: IC50 (nM)

SMILES REPRESENTATION	IC50 (nM)
CC[C@H](C)[C@@H](CO)NS(=O)(=O)c1ccc(Cl)s1	297

P. O=S(=O)(N[C@@H](CO)C(C(F)(F)F)C(F)(F)F)c1ccc(Cl)s1
Q. CCC(CC)[C@@H](CO)NS(=O)(=O)c1ccc(Cl)cc1
Ask | Quick one: lower IC50, P or Q ? Write down the label of the entry you select.
Reply | Q

* * *

TEST: Apparent permeability from apical to basolateral side in human Caco-2 cells
Assay type: ADME, cell-based
OBSERVATION TYPE: Papp A→B (×10⁻⁶ cm/s)
// return numeric value only (unit: ×10⁻⁶ cm/s, not printed)

Ask | Value lookup for Papp A→B; key = "CCC(CC)[C@@H](CO)NS(=O)(=O)c1ccc(Cl)s1"
Reply | 50

* * *

TEST: Apparent permeability from basolateral to apical side in human Caco-2 cells
Format: ADME, cell-based
OBSERVATION TYPE: Papp B→A (×10⁻⁶ cm/s)
Kindly provide the numeric value in ×10⁻⁶ cm/s only, without the unit symbol.

Ask | Which Papp B→A is reported for this compound? "CCC(CC)[C@@H](CO)NS(=O)(=O)c1ccc(Cl)s1"
Reply | 43
